- tgt: hENPP2 (UniProtKB/SwissProt Sequence ref Q13822) (Homo sapiens (Human), UniProt Q13822)
- experiment_description: FS3 hENPP2 assay (fluorogenic substrate FS-3)
- Type: biochemical
- condition_summary: hENPP2, FS-3 as substrate
Reported IC50 is given for each of the following compounds.

Before answering, review these 3 worked examples.
CCc1nc2cnc(C3=CCN(CC(=O)N4CC(O)C4)CC3)cn2c1N(C)c1nc(-c2ccc(F)cc2)c(C#N)s1 = 0.01 to 25 nM
CCc1nc2ccc(N3CCN(CC4CCCO4)CC3)nn2c1N(C)c1nc(-c2ccc(F)cc2)cs1 (stereo not shown) = 0.01 to 25 nM
CCc1nc2cnc(C3CCN(CC(=O)N4CC[C@H](O)C4)CC3)cn2c1N(C)c1nc(-c2ccc(F)cc2)c(C#N)s1 = 0.01 to 25 nM

*Q* Any idea what its IC50 is? The compound is CCc1nc2ccc(N3CCCC(CN)C3)nn2c1N(C)c1nc(-c2ccc(F)cc2)cs1 (stereo not shown)
*A* 25 to 50 nM

###

Reported pIC50 values follow for various molecules
- tgt: hENPP2 (UniProtKB/SwissProt Sequence ref Q13822) (Homo sapiens (Human), UniProt Q13822)
- experiment_description: LPC hENPP2 assay (choline release, LPC as substrate)
- Assay type: biochemical
pIC50: −log10 of the molar value.

Worked examples, 10 molecules total:
CCc1nc2ccc(N3CC(NS(C)(=O)=O)C3)nn2c1N(C)c1nc(-c2ccc(F)cc2)cs1 [Cpd 158] = 6.00 to 6.30
CCc1nc2ccc(N3CCC(N4CCN(CCCO)CC4)C3)nn2c1N(C)c1nc(-c2ccc(F)cc2)cs1 (stereo not shown) [Cpd 145] = 6.00 to 6.30
CCc1nc2ccc(N3C[C@H](O)[C@@H](N4CCOCC4)C3)nn2c1N(C)c1nc(-c2ccc(F)cc2)c(C#N)s1 [Cpd 184] = 7.00 to 11.00
CCc1nc2ccc(N3C[C@H]4C[C@H]3CN4C(=O)OC(C)(C)C)nn2c1N(C)c1nc(-c2ccc(F)cc2)cs1 [Cpd 74] = < 6.00
CCc1nc2ccc(N3CCN(CC(=O)N4CCC4)CC3)nn2c1N(C)c1nc(-c2ccc(F)cc2)cs1 [Cpd 36] = 6.30 to 7.00
CCc1nc2ccc(N3CCN(CCC#N)CC3)nn2c1N(C)c1nc(-c2ccc(F)cc2)cs1 [Cpd 51] = < 6.00
CCc1nc2ccc(N3CCC(OC=O)C3)nn2c1N(C)c1nc(-c2ccc(F)cc2)cs1 (stereo not shown) [Compound 130] = < 6.00
CCc1nc2ccc(N3CCCC3CO)nn2c1N(C)c1nc(-c2ccc(F)cc2)cs1 (stereo not shown) [Cpd 142] = < 6.00
CCc1nc2ccc(C3CCN(CC(=O)NC)CC3)nn2c1N(C)c1nc(-c2ccc(F)cc2C#N)cs1 [Cpd 209] = 6.30 to 7.00
CCc1nc2ccc(N3CCC(N4CCN(C(C)=O)CC4)C3)nn2c1N(C)c1nc(-c2ccc(F)cc2)c(C#N)s1 (stereo not shown) [Cpd 180] = 7.00 to 11.00

*Q* Entry under review: CCc1nc2cnc(N3CCN(CC(=O)N4CC(O)C4)CC3)cn2c1N(C)c1nc(-c2ccc(F)cc2C#N)cs1 [Cpd 16] . Reported pIC50?
*A* < 6.00

*Q* Sample CCc1nc2ccc(N3CCN(C4CCOCC4)CC3)nn2c1N(C)c1nc(-c2ccc(F)cc2)cs1 [Cpd 39] — what was its pIC50?
*A* < 6.00

*Q* Would you kindly share the measured pIC50 for CCc1nc2ccc(C3=CCN(S(C)(=O)=O)CC3)nn2c1N(C)c1nc(-c2ccc(F)cc2C#N)cs1 [Cpd 204] ?
*A* 6.30 to 7.00

*Q* Reported pIC50, molecule CCc1nc2ccc(N3CCC4(CN(C)C(=O)O4)C3)nn2c1N(C)c1nc(-c2ccc(F)cc2)c(CO)s1 (stereo not shown) [Cpd 120] : ____
*A* 6.30 to 7.00

*Q* Could you share which pIC50 value was measured for CCc1nc2ccc(C3CCN(CC(=O)N4CC(O)C4)CC3)nn2c1N(C)c1nc(-c2ccc(F)cc2)cs1 [Cpd 201] ?
*A* 6.30 to 7.00

*Q* pIC50 for CCc1nc2cnc(N3CCN(CC(=O)N4CC(O)C4)CC3)cn2c1N(C)c1nc(-c2ccc(F)cc2)cs1 [Cpd 14] ?
*A* < 6.00

###

- tgt: hENPP2 (UniProtKB/SwissProt Sequence ref Q13822) (Homo sapiens (Human), UniProt Q13822)
- experiment_description: FS3 hENPP2 assay (fluorogenic substrate FS-3)
- Format: biochemical
- condition_summary: hENPP2, FS-3 as substrate
pIC50: −log10 of the molar value.
measurement_kind: pIC50

CN(c1nc(-c2ccc(F)cc2)cs1)c1c(CO)nc2ccc(C3=CCN(S(C)(=O)=O)CC3)nn12 [Compound 195] = 7.60 to 11.00
CCc1nc2ccc(N3CCCC(CNS(C)(=O)=O)C3)nn2c1N(C)c1nc(-c2ccc(F)cc2)cs1 (stereo not shown) [Cpd 102] = 7.60 to 11.00
CCc1nc2ccc(N3CCC(C(=O)NCCO)CC3)nn2c1N(C)c1nc(-c2ccc(F)cc2)cs1 [Compound 97] = 7.60 to 11.00
CCc1nc2ccc(N3CCC(N4CCOCC4)C3)nn2c1N(C)c1nc(-c2ccc(F)cc2)cs1 (stereo not shown) [Cpd 147] = 7.60 to 11.00
CCc1nc2ccc(N3CCN(CCN4CCCC4=O)CC3)nn2c1N(C)c1nc(-c2ccc(F)cc2)cs1 [Cpd 46] = 7.60 to 11.00
CCc1nc2ccc(N3CCCC(CO)C3)nn2c1N(C)c1nc(-c2ccc(F)cc2)cs1 (stereo not shown) [Cpd 94] = 7.60 to 11.00
CCc1nc2ccc(N3CCN(CC4CNC(=O)O4)CC3)nn2c1N(C)c1nc(-c2ccc(F)cc2)cs1 (stereo not shown) [Cpd 40] = 7.60 to 11.00
CCc1nc2cnc(N3CCN(CC(=O)N4CC(F)C4)CC3)cn2c1N(C)c1nc(-c2ccc(F)cc2)c(C#N)s1 [Cpd 11] = 7.60 to 11.00
CCc1nc2ccc(C3CCN(CC(=O)N4CC(O)C4)CC3)nn2c1N(C)c1nccc(-c2ccc(F)cc2)n1 [Cpd 215] = 7.60 to 11.00
CCc1nc2ccc(C3CCN(CC(=O)N4CC(O)C4)CC3)nn2c1N(C)c1nc(-c2ccc(F)cc2)ccc1C#N [Cpd 217] = 7.00 to 7.30

*Q* Return reported pIC50; argument: CCc1nc2ccc(N3CCN4C(=O)OC[C@@H]4C3)nn2c1N(C)c1nc(-c2ccc(F)cc2)cs1 [Compound 61]
*A* 7.60 to 11.00

*Q* pIC50 for CCc1nc2ccc(N3CCC(N)C3)nn2c1N(C)c1nc(-c2ccc(F)cc2)cs1 (stereo not shown) [Cpd 134] ?
*A* 7.60 to 11.00

*Q* Any idea what its pIC50 is? The molecule is CCc1nc2ccc(N3CCC(N4CCC(O)CC4)C3)nn2c1N(C)c1nc(-c2ccc(F)cc2)cs1 (stereo not shown) [Cpd 152]
*A* 7.60 to 11.00

###

Parameter IC50: see the listing below.
- tgt: hENPP2 (UniProtKB/SwissProt Sequence ref Q13822) (Homo sapiens (Human), UniProt Q13822)
- experiment_description: LPC hENPP2 assay (choline release, LPC as substrate)
- Assay type: biochemical

Field: example entries. Status: answers known.
CCc1nc2ccc(N3CCC(CNS(C)(=O)=O)CC3)nn2c1N(C)c1nc(-c2ccc(F)cc2)cs1 [Cpd 105] = > 1 µM
CN(c1nc(-c2ccc(F)cc2)cs1)c1c(CCC(N)=O)nc2ccc(C3CCN(S(C)(=O)=O)CC3)nn12 [Compound 197] = 0.5 to 1 µM
CCc1nc2ccc(N3CCN(C4COC4)CC3)nn2c1N(C)c1nc(-c2ccc(F)cc2)cs1 [Compound 38] = > 1 µM
CCc1nc2ccc(N3CCN(CCC(N)=O)CC3)nn2c1N(C)c1nc(-c2ccc(F)cc2)cs1 [Compound 52] = 0.5 to 1 µM
CCc1nc2ccc(C3CCN(S(C)(=O)=O)CC3)nn2c1N(C)c1nc(-c2ccc(F)cc2C#N)cs1 [Cpd 205] = 0.1 to 0.5 µM

*Q* Could you tell me which IC50 is on file for CCc1nc2ccc(N3CCC(CO)CC3)nn2c1N(C)c1nc(-c2ccc(F)cc2)cs1 [Cpd 93] ?
*A* > 1 µM

*Q* Report IC50 for CCc1nc2ccc(N3CCN(CC(=O)N4CCCC4C)CC3)nn2c1N(C)c1nc(-c2ccc(F)cc2)cs1 (stereo not shown) [Cpd 28] please.
*A* 0.1 to 0.5 µM

These entries and their values trace back to patent US9796719B2.
